B1: ALDH8A1 (parent)
chain: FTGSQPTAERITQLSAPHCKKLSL

# Variants of: B1
# method summary: protein stability index of a GFP-peptide fusion (GPS, HEK-293T) (PSI 1-6); higher = more stable;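 note: lentivirally expressed fusions sorted by FACS into six bins by GFP to DsRed ratio, PSI derived from sequencing read proportions per bin multiplied by bin number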
# experimental setup: c terminus: a fixed tail appended
endpoint name: protein stability index

{"columns": ["variant id", "endpoint name", "numeric result"],
 "data": [
  ["T12P", "protein stability index", 2.32],
  ["T7F", "protein stability index", 2.99],
  ["T7M", "protein stability index", 2.12],
  ["E9V", "protein stability index", 1.46],
  ["K21W", "protein stability index", 1.71],
  ["Q5H", "protein stability index", 2.14],
  ["K20E", "protein stability index", 2.75],
  ["Q13G", "protein stability index", 2.31],
  ["I11H", "protein stability index", 2.96],
  ["Q13H", "protein stability index", 2.24],
  ["Q5A", "protein stability index", 2.08],
  ["S15Q", "protein stability index", 2.09],
  ["Q13Y", "protein stability index", 1.97],
  ["L22R", "protein stability index", 2.23],
  ["K20H", "protein stability index", 1.88],
  ["L24Y", "protein stability index", 2.2],
  ["R10Y", "protein stability index", 1.65],
  ["S15M", "protein stability index", 2.13],
  ["L24N", "protein stability index", 2.97],
  ["L22T", "protein stability index", 2.61],
  ["C19P", "protein stability index", 2.06],
  ["G3E", "protein stability index", 3.56],
  ["Q5P", "protein stability index", 2.99],
  ["A8W", "protein stability index", 3.71],
  ["R10M", "protein stability index", 1.97],
  ["K20D", "protein stability index", 2.57],
  ["S15T", "protein stability index", 2.25],
  ["H18T", "protein stability index", 2.31],
  ["G3V", "protein stability index", 2.44],
  ["T2Q", "protein stability index", 3.24],
  ["S23N", "protein stability index", 2.39],
  ["T7E", "protein stability index", 2.62],
  ["R10H", "protein stability index", 2.3],
  ["L14F", "protein stability index", 1.79],
  ["F1Y", "protein stability index", 2.47],
  ["T2G", "protein stability index", 3.19],
  ["K21S", "protein stability index", 2.22],
  ["I11Q", "protein stability index", 2.49],
  ["Q5G", "protein stability index", 2.15],
  ["L14Y", "protein stability index", 2.39]
]}
